Please find below pIC50 measurements for Ephrin type-A receptor 3 (Homo sapiens), combined from several publications.
pIC50: −log10 of the molar value.
observed_property: pIC50

// solved cases for pIC50 follow
CCOc1ccc2cc(-c3nn(C(C)C)c4ncnc(N)c34)ccc2c1	5.43
CCCc1cc(N2CCC(N)CC2)nc2sc(C(N)=O)c(N)c12	5.15

[a] COc1ccccc1-n1c(-c2cc(O)ccc2C)cn2c3c(=O)[nH]c(=O)n(C)c3nc12
[b] COc1c(NC(=O)Nc2ccc(-c3ccc(CN4CCOCC4)nc3)c3ccccc23)cc(C(C)(C)C)cc1NS(C)(=O)=O
### Prompt Kindly identify the item with the lower pIC50 figure among these two: a and b Answer by stating the label of the chosen item.
### Response b
(b: 5.49, a: 7.40)

====

Please find below IC50 measurements for Ephrin type-A receptor 3 (Homo sapiens), combined from several publications.
- measurement_target: Ephrin type-A receptor 3 (Homo sapiens)
- Sequence (P29320 whole entry): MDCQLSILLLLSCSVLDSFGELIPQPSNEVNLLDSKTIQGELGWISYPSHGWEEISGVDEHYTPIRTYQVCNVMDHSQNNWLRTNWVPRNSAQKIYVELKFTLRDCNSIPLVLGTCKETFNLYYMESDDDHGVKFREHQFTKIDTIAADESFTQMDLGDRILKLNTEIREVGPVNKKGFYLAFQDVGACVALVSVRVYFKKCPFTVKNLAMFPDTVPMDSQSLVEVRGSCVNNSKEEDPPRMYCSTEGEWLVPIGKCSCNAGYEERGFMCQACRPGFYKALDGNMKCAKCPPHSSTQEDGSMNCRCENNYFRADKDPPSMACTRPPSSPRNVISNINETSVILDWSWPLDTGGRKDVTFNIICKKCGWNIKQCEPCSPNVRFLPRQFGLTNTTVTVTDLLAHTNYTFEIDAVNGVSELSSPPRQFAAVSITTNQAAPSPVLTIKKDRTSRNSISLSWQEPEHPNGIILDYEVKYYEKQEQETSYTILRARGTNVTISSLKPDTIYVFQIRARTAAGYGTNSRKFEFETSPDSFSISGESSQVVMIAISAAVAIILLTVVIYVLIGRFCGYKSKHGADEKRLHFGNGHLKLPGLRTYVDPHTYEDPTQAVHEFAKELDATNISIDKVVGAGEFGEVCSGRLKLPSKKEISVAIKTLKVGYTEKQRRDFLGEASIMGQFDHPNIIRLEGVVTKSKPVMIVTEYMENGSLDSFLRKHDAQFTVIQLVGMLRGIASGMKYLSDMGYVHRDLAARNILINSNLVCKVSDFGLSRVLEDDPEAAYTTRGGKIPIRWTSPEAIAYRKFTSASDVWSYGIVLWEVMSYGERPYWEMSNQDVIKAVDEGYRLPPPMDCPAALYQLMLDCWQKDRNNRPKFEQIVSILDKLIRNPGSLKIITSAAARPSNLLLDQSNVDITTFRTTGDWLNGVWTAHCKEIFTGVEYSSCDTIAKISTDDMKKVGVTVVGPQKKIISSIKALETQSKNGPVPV

// solved cases for IC50 follow
CC(C)n1cnnc1-c1cccc(NC(=O)C2CCCCO2)n1 (stereo not given)	> 20 µM
CC(C)(C)NS(=O)(=O)c1cncc(-c2ccn3nc(N)nc3c2)c1	> 10 µM
CC(C)n1cnnc1-c1cccc(N2Cc3ccccc3C2=O)n1	> 20 µM
CCCc1cc(N2CCCC(O)C2)nc2sc(C(N)=O)c(N)c12 (stereo not given)	> 7 µM

Input `CCOc1ccn(-c2ccc(F)cc2)c(=O)c1C(=O)Nc1ccc(Oc2ccnc(N)c2Cl)c(F)c1` . Output IC50: > 0.5 µM
